All values here come from patent US7491794B2.

target: NS3-NS4A protease (Hepatitis C virus genotype 1a, UniProt P27958); construct: Recombinant E. coli or Baculovirus full-length NS3 was diluted to 3.33 μM with assay buffer; made in house; host or cells: E. coli or baculovirus (BV) system; experiment: NS3-NS4A protease assay (NS3 inhibition assay, RETS1 substrate), Section B; assay type: biochemical; details: read-out: NS3-NS4A IC50
Sequence (P27958 1027-1657): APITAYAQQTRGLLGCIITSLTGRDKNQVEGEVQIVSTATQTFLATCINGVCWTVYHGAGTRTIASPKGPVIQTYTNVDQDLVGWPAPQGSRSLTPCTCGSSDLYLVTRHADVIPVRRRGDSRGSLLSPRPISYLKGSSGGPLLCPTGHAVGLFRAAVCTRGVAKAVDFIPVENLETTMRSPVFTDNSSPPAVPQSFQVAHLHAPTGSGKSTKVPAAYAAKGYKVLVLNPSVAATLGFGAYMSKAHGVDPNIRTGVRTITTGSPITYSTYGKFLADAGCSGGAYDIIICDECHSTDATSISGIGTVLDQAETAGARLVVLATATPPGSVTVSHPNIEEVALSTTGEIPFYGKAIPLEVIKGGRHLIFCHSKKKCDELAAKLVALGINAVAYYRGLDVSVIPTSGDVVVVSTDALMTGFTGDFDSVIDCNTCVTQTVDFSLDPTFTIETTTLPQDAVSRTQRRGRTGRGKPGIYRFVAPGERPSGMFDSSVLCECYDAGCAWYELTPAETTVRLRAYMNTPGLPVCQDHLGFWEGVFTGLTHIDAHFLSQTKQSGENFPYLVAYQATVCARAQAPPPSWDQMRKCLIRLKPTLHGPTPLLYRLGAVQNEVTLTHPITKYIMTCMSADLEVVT
IC50 overview

Compound | System Name | IC50
CC(C)(C)OC(=O)N[C@H]1CCCCC/C=C\[C@@H]2C[C@@]2(C(=O)NS(C)(=O)=O)NC(=O)[C@@H]2C[C@@H](OC(=O)N3CCc4ccccc4C3)CN2C1=O [AR00254906] | NS3-NS4A protease (Hepatitis C virus genotype 1a, UniProt P27958) | < 0.1 µM
O=C(NC1CCCC1)N[C@H]1CCCCC/C=C\[C@@H]2C[C@@]2(C(=O)O)NC(=O)[C@@H]2C[C@@H](OC(=O)N3Cc4ccccc4C3)CN2C1=O [AR00304079] | NS3-NS4A protease (Hepatitis C virus genotype 1a, UniProt P27958) | < 0.1 µM
CC(C)(C)OC(=O)N[C@H]1CCCCC/C=C\[C@@H]2C[C@@]2(C(=O)O)NC(=O)[C@@H]2C[C@@H](OC(=O)N3CCc4ccccc4C3CN3CCOCC3)CN2C1=O (some centres unmarked) [AR00333225] | NS3-NS4A protease (Hepatitis C virus genotype 1a, UniProt P27958) | < 10 µM
CCCCS(=O)(=O)NC(=O)[C@@]12C[C@H]1/C=C\CCCCC[C@H](NC(=O)OC(C)(C)C)C(=O)N1C[C@H](OC(=O)N3CCc4ccccc4C3)C[C@H]1C(=O)N2 [AR00261409] | NS3-NS4A protease (Hepatitis C virus genotype 1a, UniProt P27958) | < 0.1 µM
CN(C)c1cccc2c1CCN(C(=O)O[C@@H]1C[C@H]3C(=O)N[C@]4(C(=O)O)C[C@H]4/C=C\CCCCC[C@H](NC(=O)OC(C)(C)C)C(=O)N3C1)C2 [AR00315997] | NS3-NS4A protease (Hepatitis C virus genotype 1a, UniProt P27958) | < 1 µM
O=C(N[C@H]1CCCCC/C=C\[C@@H]2C[C@@]2(C(=O)O)NC(=O)[C@@H]2C[C@@H](OC(=O)N3CCc4ccccc4C3)CN2C1=O)C1CCCC1 [AR00248689] | NS3-NS4A protease (Hepatitis C virus genotype 1a, UniProt P27958) | < 1 µM
COCC1c2ccc(OC)cc2CCN1C(=O)O[C@@H]1CC2C(=O)N[C@]3(C(=O)NS(=O)(=O)C4CC4)C[C@H]3/C=C\CCCCC[C@H](NC(=O)OC(C)(C)C)C(=O)N2C1 (some centres unmarked) [AR00334339] | NS3-NS4A protease (Hepatitis C virus genotype 1a, UniProt P27958) | < 0.1 µM
COc1ccc(S(=O)(=O)NC(=O)[C@@]23C[C@H]2/C=C\CCCCC[C@H](NC(=O)OC(C)(C)C)C(=O)N2C[C@H](OC(=O)N4Cc5ccccc5C4)C[C@H]2C(=O)N3)cc1 [AR00334341] | NS3-NS4A protease (Hepatitis C virus genotype 1a, UniProt P27958) | < 0.1 µM
O=C(NC1CCCC1)N[C@H]1CCCCC/C=C\[C@@H]2C[C@@]2(C(=O)NS(=O)(=O)C2CC2)NC(=O)[C@@H]2C[C@@H](OC(=O)N3Cc4ccccc4C3)CN2C1=O [AR00304082] | NS3-NS4A protease (Hepatitis C virus genotype 1a, UniProt P27958) | < 0.1 µM
CC(C)(C)OC(=O)N[C@H]1CCCCCC=C[C@@H]2C[C@@]2(C(=O)NS(=O)(=O)C2CC2)NC(=O)[C@@H]2C[C@@H](OC(=O)N3Cc4ccccc4C(C)(C)C3)CN2C1=O [AR00312025] | NS3-NS4A protease (Hepatitis C virus genotype 1a, UniProt P27958) | < 0.1 µM

# evaluate next
So, O=C(N[C@H]1CCCCC/C=C\[C@@H]2C[C@@]2(C(=O)NS(=O)(=O)C2CC2)NC(=O)[C@@H]2C[C@@H](OC(=O)N3Cc4ccc(Cl)cc4C3)CN2C1=O)OCCF [AR00334222] ? Its IC50 was < 0.1 µM

###

Consider the following compounds and their measured IC50 readings.
Target: NS3-NS4 protease (Hepatitis C virus genotype 1a)
Construct: Recombinant E. coli or Baculovirus full-length NS3 was diluted to 3.33 μM with assay buffer; made in house; host or cells: E. coli or baculovirus (BV) system
Sequence (P27958 1027-1657): as above
Assay: NS3-NS4 protease assay / NS3 inhibition assay, Section D
Type: biochemical
Method: NS3-NS4 Protease Assay NS3 complex formation with NS4A-2. Recombinant E. coli or Baculovirus full-length NS3 was diluted to 3.33 μM with assay buffer and transferred material to an eppendorf tube and place in water bath in 4° C. refrigerator. […] Read the plate in kinetic mode on the Molecular Devices SpectraMax Gemini XS plate reader. […] IC50s are determined using a four parameter curve fit equation, and converted to Ki's using the following Km's: […]

Compound | System Name | Metric Name | Measurement
CC(C)(C)OC(=O)N[C@H]1CCCCC/C=C\[C@@H]2C[C@@]2(C(=O)NS(=O)(=O)C2CC2)NC(=O)[C@@H]2C[C@@H](NC(=O)c3sc4cccc(Cl)c4c3Cl)CN2C1=O [Example 45] | NS3-NS4 protease (Hepatitis C virus genotype 1a) | IC50 | < 0.1 µM
CCc1ccc(C(=O)N[C@@H]2C[C@H]3C(=O)N[C@]4(C(=O)NS(=O)(=O)C5CC5)C[C@H]4/C=C\CCCCC[C@H](NC(=O)OC(C)(C)C)C(=O)N3C2)cc1 [Example 3] | NS3-NS4 protease (Hepatitis C virus genotype 1a) | IC50 | < 0.1 µM
CC(C)(C)OC(=O)N[C@H]1CCCCC/C=C\[C@@H]2C[C@@]2(C(=O)NS(=O)(=O)C2CC2)NC(=O)[C@@H]2C[C@@H](NC(=O)c3ccc(C#N)cc3)CN2C1=O [Example 9] | NS3-NS4 protease (Hepatitis C virus genotype 1a) | IC50 | < 0.1 µM
CC(C)(C)OC(=O)N[C@H]1CCCCC/C=C\[C@@H]2C[C@@]2(C(=O)O)NC(=O)[C@@H]2C[C@@H](NC(=O)c3sc4cc(F)ccc4c3Cl)CN2C1=O [Example 65] | NS3-NS4 protease (Hepatitis C virus genotype 1a) | IC50 | < 1 µM

Field: next compound
Entry CN(C)c1ccc(C(=O)N[C@@H]2C[C@H]3C(=O)N[C@]4(C(=O)NS(=O)(=O)C5CC5)C[C@H]4/C=C\CCCCC[C@H](NC(=O)OC(C)(C)C)C(=O)N3C2)cn1 [Example 13] ; IC50 = < 0.1 µM

###

target: NS3-NS4A protease (Hepatitis C virus genotype 1a); construct: Recombinant E. coli or Baculovirus full-length NS3 was diluted to 3.33 μM with assay buffer; made in house; host or cells: E. coli or baculovirus (BV) system; test: NS3-NS4A protease assay (NS3 inhibition assay, RETS1 substrate), Section B; assay type: biochemical; conditions: read-out: NS3-NS4A IC50
Below, each of the molecules is paired with its reported IC50 value.

Known IC50 results, listed for orientation:
Compound Structure String | Measurement
O=C(NC1CCCC1)N[C@H]1CCCCC/C=C\[C@@H]2C[C@@]2(C(=O)NS(=O)(=O)C2CC2)NC(=O)[C@@H]2C[C@@H](OC(=O)N3CCc4ccccc4C3)CN2C1=O | < 100 nM
O=C(N[C@H]1CCCCC/C=C\[C@@H]2C[C@@]2(C(=O)NS(=O)(=O)C2CC2)NC(=O)[C@@H]2C[C@@H](OC(=O)N3CCc4ccccc4[C@H]3CN3CCCCC3)CN2C1=O)OC1CCCC1 | < 100 nM
O=C(N[C@H]1CCCCC/C=C\[C@@H]2C[C@@]2(C(=O)O)NC(=O)[C@@H]2C[C@@H](OC(=O)N3CCc4c(F)cccc4C3)CN2C1=O)OC1CCCC1 | < 1000 nM

GET /values?item= `CC(C)S(=O)(=O)NC(=O)[C@@]12C[C@H]1/C=C\CCCCC[C@H](NC(=O)OC(C)(C)C)C(=O)N1C[C@H](OC(=O)N3CCc4ccccc4C3)C[C@H]1C(=O)N2` &system= NS3-NS4A protease (Hepatitis C virus genotype 1a) returns IC50: < 100 nM

###

molecular target: NS3-NS4A protease (Hepatitis C virus genotype 1a, UniProt P27958); construct: Recombinant E. coli or Baculovirus full-length NS3 was diluted to 3.33 μM with assay buffer; made in house; host or cells: E. coli or baculovirus (BV) system; assay: NS3-NS4A protease assay (NS3 inhibition assay, RETS1 substrate), Section B; format: biochemical; conditions: read-out: NS3-NS4A IC50
Metric Name: IC50

Compound | System Name | Metric Name | Measurement
O=C(N[C@H]1CCCCC/C=C\[C@@H]2C[C@@]2(C(=O)O)NC(=O)[C@@H]2C[C@@H](OC(=O)N3CCc4ccccc4C3)CN2C1=O)OCCF [AR00304125] | NS3-NS4A protease (Hepatitis C virus genotype 1a, UniProt P27958) | IC50 | < 1000 nM
O=C(N[C@H]1CCCCC/C=C\[C@@H]2C[C@@]2(C(=O)O)NC(=O)[C@@H]2C[C@@H](OC(=O)N3Cc4ccccc4C3)CN2C1=O)O[C@@H]1CCOC1 [AR00320074] | NS3-NS4A protease (Hepatitis C virus genotype 1a, UniProt P27958) | IC50 | < 100 nM
CC(C)(C)OC(=O)N[C@H]1CCCCC/C=C\[C@@H]2C[C@@]2(C(=O)NS(=O)(=O)C(F)(F)F)NC(=O)[C@@H]2C[C@@H](OC(=O)N3Cc4ccccc4C3)CN2C1=O [AR00340479] | NS3-NS4A protease (Hepatitis C virus genotype 1a, UniProt P27958) | IC50 | < 100 nM
CC(C)(C)OC(=O)N[C@H]1CCCCC/C=C\[C@@H]2C[C@@]2(C(=O)NS(=O)(=O)c2ccc(C(=O)O)cc2)NC(=O)[C@@H]2C[C@@H](OC(=O)N3Cc4cccc(F)c4C3)CN2C1=O [AR00365438] | NS3-NS4A protease (Hepatitis C virus genotype 1a, UniProt P27958) | IC50 | < 100 nM
O=C(Cc1ccccc1)N[C@H]1CCCCC/C=C\[C@@H]2C[C@@]2(C(=O)NS(=O)(=O)C2CC2)NC(=O)[C@@H]2C[C@@H](OC(=O)N3Cc4cccc(F)c4C3)CN2C1=O [AR00340188] | NS3-NS4A protease (Hepatitis C virus genotype 1a, UniProt P27958) | IC50 | < 100 nM

Form field, IC50 with NS3-NS4A protease (Hepatitis C virus genotype 1a, UniProt P27958), item CC(C)(C)OC(=O)N[C@H]1CCCCC/C=C\[C@@H]2C[C@@]2(C(=O)O)NC(=O)[C@@H]2C[C@@H](NC(=O)N3CCCc4ccccc43)CN2C1=O [AR00304160] : < 50000 nM

Measured IC50 (NS3-NS4A protease (Hepatitis C virus genotype 1a, UniProt P27958)), entry CN1CCN(c2ccc3c(c2)CN(C(=O)O[C@@H]2C[C@H]4C(=O)N[C@]5(C(=O)NS(=O)(=O)C6CC6)C[C@H]5/C=C\CCCCC[C@H](NC(=O)OC(C)(C)C)C(=O)N4C2)C3)CC1 [AR00340495] : < 100 nM
